# Tested on: Plasmodium falciparum
# protocol: In vitro anti-plasmodial activity against chloroquine-resistant Plasmodium falciparum Indochina I
# Format: functional, organism-based
Below, each entry is listed with its recorded log10 of IC50.
readout_name: log10 of IC50 (log10 of the value in nM)

{"columns": ["compound_smiles", "log10 of IC50"],
 "data": [
  ["CCN(CC)CCCCCCCCCCNc1ccnc2cc(I)ccc12", 1.20],
  ["CCN(CC)CCCCCCCCCCCCNc1ccnc2cc(Cl)ccc12", 1.04],
  ["CCN(CC)CCCCCCCCCCNc1ccnc2cc(F)ccc12", 1.60],
  ["CCN(CC)CCCCCCCCCCCCNc1ccnc2cc(F)ccc12", 1.40],
  ["CCN(CC)CCCCCCCCCCNc1ccnc2cc(Br)ccc12", 1.23],
  ["CCN(CC)CCCCCCCCCCCCNc1ccnc2cc(I)ccc12", 1.30],
  ["CCN(CC)CCCCCCCCCCCCNc1ccnc2cc(OC)ccc12", 1.95],
  ["CCN(CC)CCCCCCCCCCNc1ccnc2cc(C(F)(F)F)ccc12", 1.30],
  ["CCN(CC)CCCCCCCCCCNc1ccnc2cc(OC)ccc12", 2.23],
  ["CCN(CC)CCCCCCCCCCCCNc1ccnc2cc(Br)ccc12", 1.26],
  ["CCN(CC)CCCCCCCCCCCCNc1ccnc2cc(C(F)(F)F)ccc12", 1.40],
  ["CCN(CC)CCCCCCCCCCNc1ccnc2cc(Cl)ccc12", 1.11],
  ["CCN(CC)CCCCCCCCNc1ccnc2cc(Cl)ccc12", 1.61]
]}

###

# Test system: Plasmodium falciparum
# protocol: In vitro antiplasmodial activity against chloroquine-sensitive Plasmodium falciparum Haiti 135
# Format: functional, organism-based
pIC50: −log10 of the molar value.
pIC50 values, listed per item

{"columns": ["molecule", "measured_on", "pIC50"],
 "data": [
  ["CCN(CC)CCNc1ccnc2cc(Br)ccc12", "Plasmodium falciparum", 8.15],
  ["CCN(CC)CCCC(C)Nc1ccnc2cc(I)ccc12 (configuration not stated)", "Plasmodium falciparum", 8.40],
  ["CCN(CC)CCCC(C)Nc1ccnc2cc(Br)ccc12 (configuration not stated)", "Plasmodium falciparum", 8.30],
  ["CCN(CC)CC(C)Nc1ccnc2cc(C(F)(F)F)ccc12 (configuration not stated)", "Plasmodium falciparum", 7.30],
  ["CCN(CC)CCCC(C)Nc1ccnc2cc(C(F)(F)F)ccc12 (configuration not stated)", "Plasmodium falciparum", 7.80],
  ["CCN(CC)CCCCCCCCNc1ccnc2cc(Cl)ccc12", "Plasmodium falciparum", 8.40],
  ["CCN(CC)CCCCCCCCCCCCNc1ccnc2cc(F)ccc12", "Plasmodium falciparum", 8.10]
]}

###

# System: Plasmodium falciparum
# protocol: In vitro antiplasmodial activity against chloroquine-sensitive Plasmodium falciparum Haiti 135
# Assay type: functional, organism-based
Quick reference for IC50 among some compounds
readout_name: IC50

{"columns": ["compound", "readout_name", "result"],
 "data": [
  ["CCN(CC)CCCNc1ccnc2cc(OC)ccc12", "IC50", "150 nM"],
  ["CCN(CC)CCCCCCCCCCNc1ccnc2cc(I)ccc12", "IC50", "6 nM"],
  ["CCN(CC)CCNc1ccnc2cc(C(F)(F)F)ccc12", "IC50", "30 nM"],
  ["CCN(CC)CCCC(C)Nc1ccnc2cc(OC)ccc12 (stereo not drawn)", "IC50", "55 nM"],
  ["CCN(CC)CCCCCCCCCCNc1ccnc2cc(OC)ccc12", "IC50", "10 nM"],
  ["CCN(CC)CCCCCCCCCCNc1ccnc2cc(Br)ccc12", "IC50", "6 nM"],
  ["CCN(CC)CCCCNc1ccnc2cc(Cl)ccc12", "IC50", "5 nM"],
  ["CCN(CC)CCNc1ccnc2cc(F)ccc12", "IC50", "35 nM"],
  ["CCN(CC)CCCCCCCCCCNc1ccnc2cc(Cl)ccc12", "IC50", "6 nM"],
  ["CCN(CC)CCCCCCCCCCCCNc1ccnc2cc(Cl)ccc12", "IC50", "13 nM"],
  ["CCN(CC)CC(C)Nc1ccnc2cc(OC)ccc12 (stereo not drawn)", "IC50", "94 nM"],
  ["CCN(CC)CCNc1ccnc2cc(OC)ccc12", "IC50", "48 nM"],
  ["CCN(CC)CC(C)Nc1ccnc2cc(Br)ccc12 (stereo not drawn)", "IC50", "11 nM"]
]}
